Task for the reader: assign each of the following compounds its reported growth inhibition.
# Test details: NCI Yeast Anticancer Drug Screen. Data for the sgs1 mgt1 strain (AID 161);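 further: 0% = growth of cultures given vehicle only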
# Cond: S. cerevisiae sgs1 mgt1 strain, at 50.0 µM, active compounds read high
Compounds without any hit were thinned out: in the full panel of roughly 79,000, 15% have a hit. Activity calls are given as the source filed them. No stated cut-off is given here; in the data, active means growth inhibition above about 70%; inactive means the rest.

Entry under test: O=C1CCC(Cc2ccc(C(F)(F)F)cc2)C(=O)N1 (stereo not given) . Its growth inhibition was 95.8% (active)

According to the records, this compound `CC(=O)Nc1ccc2c(c1)Cc1cccc(F)c1-2` displays growth inhibition of 22.4% (inactive)

Value of growth inhibition reported for the compound `COc1ccccc1NC(=O)C1=C(C)NC(C)=C(C(=O)Nc2ccccc2OC)C1c1ccccc1[N+](=O)[O-]` is 60.9% (inactive)

Lab note: `O=C1C=C(O)c2cc(Br)ccc2C1=O.[Ag]` gave growth inhibition of 99.7% (active)

Looking up `O=C1OC2(CCN(Cc3ccccc3)CC2)C(=O)N1c1cccc(Cl)c1` , I found its growth inhibition recorded as 76.5% (active)

Value of measured growth inhibition for the entry `CN(C)C(=O)Nc1ccc(Cc2ccc(NC(=O)N(C)C)cc2)cc1` : 27.6% (inactive)

Lab note: measured growth inhibition of `CCOc1ccc2nc([NH-])sc2c1.CCOc1ccc2nc([NH-])sc2c1.CCOc1ccc2nc([NH-])sc2c1.CCOc1ccc2nc([NH-])sc2c1.[Cl][Rh][Cl]` was 67.2% (inactive)

The recorded growth inhibition for entry `Cc1c[n+](CC(=O)c2ccc(I)cc2)c(C)s1` equals -2.85% (inactive)

// `Cc1c2c(c(C)c3c1sc1ccccc13)CCN=C2` : growth inhibition value = 57.6% (inactive)

# growth inhibition of `O=C1CNCCCN2CCN(CCCNCC(=O)Nc3ccc(cc3)S(=O)(=O)c3ccc(cc3)NC(=O)CNCCCN3CCN(CCCNCC(=O)Nc4ccc(cc4)S(=O)(=O)c4ccc(cc4)N1)CC3)CC2` = 99% (active)

* * *

I'd be grateful if you could share measured growth inhibition for these entries.
# Test details: NCI Yeast Anticancer Drug Screen. Data for the mlh1 rad18 strain (AID 175)
# Cond: S. cerevisiae mlh1 rad18 strain growth inhibition; at 50.0 µM (retest, dose inferred, filed as 5.0); active compounds read high
The panel holds about 79,000 compounds, 15% with a hit somewhere; the sample as a whole holds those more often.
Number in %, nothing else.

get_value(item= `Oc1[nH]c2ccccc2c1N=NC(=S)NCc1ccccn1` , readout=growth inhibition) returns 99

Per the records, this compound ( `CCCCCCCCCCCCNCCNCCN` ) has growth inhibition equal to 100

The compound listed as CC(=O)c1c2c(cc3c1CC1(C3)Cc3cc4c(c(C(=O)O)c3C1)CCCC4)CCCC2 (stereo not drawn) (tested in a mixture with another compound) has a reported growth inhibition of 99

For record `CCN(CC)C(C)(C)C(=O)/C=C/c1ccc(Cl)cc1` the listed growth inhibition is 94

Given item `COc1c2c3c(ccnc3c3ccccc13)C(=O)N2C` , the value recorded as its growth inhibition is 76

Form: compound = `COc1ccccc1CN1CCCN(Cc2ccccc2OC)C1c1ccccc1F` ; growth inhibition = 16

The compound `CCCCCCCCCCCCNCc1ccc2c(c1)OCO2` showed growth inhibition equal to 95

Measured growth inhibition of `[Cl][Sn]([CH2][CH2][Sn]([Cl])([c]1ccccc1)[c]1ccccc1)([c]1ccccc1)[c]1ccccc1` : 98
